Source of measurements: PubChem BioAssay AID1159580

- ASSAY_METHOD_TEXT: chemical genetic growth profiling, strain panel (AID 1159580);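 also: tested at 20 µM; growth read once vehicle control cultures reached saturation at 30 °C; 1 = growth at the plate median or of vehicle wells; lower values mean less growth of the strain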
- CONDITION_LABEL: S. cerevisiae deletion strains, growth OD, locus YDL134C, strain PPH21, stronger effect = lower value
Out of some 5,500 compounds screened, about 2,000 (36%) were called active. Not shown: some 18% with an inconclusive outcome. Some of the results follow.
# normalized growth listing for each entry below

compound=Cc1cc(=O)c2c(O)c(C)c(O)cc2o1 result="0.983 (inactive)"
compound=Cc1cc(=O)c2c(O)cc(O)c(C)c2o1 result="0.996 (inactive)"
compound="O=C1CC(c2ccc(O)cc2)Oc2ccccc21 (stereo not given)" result="0.798 (active)"

IN: Fill in normalized growth for record CC1(C)C2CC[C@]3(C)C(C(=O)C=C4[C@@H]5C[C@@](C)(C(=O)O)CC[C@]5(C)CC[C@]43C)[C@@]2(C)CC[C@@H]1OC(=O)CCC(=O)O (stereo not given in full)
OUT: 0.966 (inactive)

IN: Note normalized growth for the compound shown: O=C(O)COc1cc(Cl)c(Cl)cc1Cl
OUT: 1.01 (inactive)
